- condition: in acetonitrile, 283.15 K
quantity measured: solubility (mole fraction)

INPUT: Give solubility (mole fraction) for the following molecule: NC(=O)Cc1ccc(O)cc1
OUTPUT: 0.00141

----------
- condition: in methanol, 313.15 K
quantity measured: solubility (mole fraction)
// print number alone

INPUT: Give solubility (mole fraction) for the following compound: NC(=O)Cc1ccc(O)cc1
OUTPUT: 0.0192

----------
- condition: in isopropanol, 283.15 K
quantity measured: solubility (mole fraction)
// print number alone

INPUT: Give solubility (mole fraction) for the following compound: NC(=O)Cc1ccc(O)cc1
OUTPUT: 0.00379

----------
- condition: in ethanol, 308.15 K
quantity measured: solubility (mole fraction)
// print number alone

INPUT: Give solubility (mole fraction) for the following compound: NC(=O)Cc1ccc(O)cc1
OUTPUT: 0.0107
